Molecular target: UniProt P56081
Sequence (P56081 whole entry): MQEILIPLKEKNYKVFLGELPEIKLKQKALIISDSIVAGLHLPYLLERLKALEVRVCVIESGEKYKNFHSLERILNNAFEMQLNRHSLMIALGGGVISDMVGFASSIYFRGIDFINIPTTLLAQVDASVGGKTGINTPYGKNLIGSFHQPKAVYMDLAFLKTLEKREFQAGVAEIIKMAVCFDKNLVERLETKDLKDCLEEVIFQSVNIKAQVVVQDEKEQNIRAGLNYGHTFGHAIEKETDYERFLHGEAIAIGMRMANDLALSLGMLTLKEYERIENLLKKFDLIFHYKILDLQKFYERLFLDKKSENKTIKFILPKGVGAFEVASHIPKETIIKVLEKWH
Test readout: IC50 (µM)
One number for each entry, in µM.

// IC50 lookup, key: O=C(Nc1ccc2c(O)cc(S(=O)(=O)O)cc2c1)Nc1ccc2c(O)cc(S(=O)(=O)O)cc2c1 [NSC45174]
7.1

====

Molecular target: shikimate kinase (SK) (Helicobacter pylori, UniProt P56073)
Sequence (P56073 whole entry): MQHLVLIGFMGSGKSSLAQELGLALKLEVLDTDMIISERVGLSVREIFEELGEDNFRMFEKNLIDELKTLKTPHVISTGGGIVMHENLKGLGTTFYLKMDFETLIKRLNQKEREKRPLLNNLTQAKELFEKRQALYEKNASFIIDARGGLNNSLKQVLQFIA
Assay: Single enzyme inhibition assay, SK activity (ADP release coupled to NADH oxidation)
Format: biochemical
Settings: 100 nM enzyme, 1.6 mM shikimate, 2 mM ATP, 25°C, pH 8.0; read-out: SK IC50
Test readout: pIC50
Numbers only, as −log10 of the molar value.

// pIC50 lookup, key: Cc1cc(/N=N/c2ccc(/N=N/c3ccc(/N=N/c4ccc(O)c(C(=O)O)c4)cc3)c(S(=O)(=O)O)c2C)c(N)cc1N
5.32
